Reference for the values: patent US4547509A

Test system: rat adipocyte lipolysis
ASSAY REMARKS: Rat Adipocyte Assay (epinephrine-stimulated lipolysis, glycerol release)
Type: cell-based
CONDITION NOTES: epinephrine 3 μM plus methylisobutylxanthine 10 μM, 1 hour at 37° C., read-out: Adipocyte I50
METRIC: pIC50
Scale: pIC50 equals -log10([C]), with [C] in mol/L.

Specify reported pIC50 for the compound shown: COc1ccccc1NC(=O)Oc1ccc2cccnc2c1 [Example 4, 7-quinolyl-2-methoxy carbanilate]
4.10

Give the reported value of pIC50 for this record: COc1ccccc1NC(=O)Oc1ccc2ncccc2c1 [Example 5, 6-quinolyl-2-methoxy carbanilate]
4.52

* * *

Tested on: Canine cardiac lipases
ASSAY REMARKS: Myocardial Lipase Assay
Assay type: biochemical
CONDITION NOTES: 100 μM compound, 3.0% DMSO, triolein emulsion, pH 6.8, tested in duplicate
METRIC: Lipase % Inh. at 100 μM (%)
Field format: number, assumed %, no unit text.

Annotate the compound COc1ccc(NC(=O)Oc2ccc3ncccc3c2)cc1 [Example 2, 6-quinolyl-4-methoxy carbanilate] with its measured Lipase % Inh. at 100 μM.
64

Give reported Lipase % Inh. at 100 μM value for COc1ccc(NC(=O)Oc2cccc3ncccc23)cc1 [Example 3, 5-quinolyl-4-methoxy carbanilate]
63

Give recorded Lipase % Inh. at 100 μM. Cc1ccccc1NC(=O)Oc1ccc2cccnc2c1 [Example 10, 7-quinolyl-2-methyl carbanilate]
45

Identify measured Lipase % Inh. at 100 μM associated with COc1ccc(NC(=O)Oc2ccc3cccnc3c2)cc1 [Example 1]
60
